Tested on: L1210 leukemia ip in BDF1 mice, survival T/C
Assay: NCI In Vivo Anticancer Drug Screen. Data for tumor model L1210 Leukemia (intraperitoneal) in B6D2F1 (BDF1) mice
Conditions: endpoint: mean survival time; dose: 50.0 mg/kg/injection; schedule: Q01DX001 (ip); vehicle: Klucel (hydroxypropylcellulose) (HPC); higher = longer survival
Inconclusive results and toxic doses are left out.
Reported property: T/C

In [3]: df
Out[3]:
                                   compound      result_value
0          O=C(CCl)NCc1ccc([N+](=O)[O-])cc1  100 % of control
1  O=c1[nH]c(SCc2cccc([N+](=O)[O-])c2)nc2nc[nH]c12   96 % of control
2                    CC(=O)CC(=O)Nc1ccccc1C  100 % of control
3  COC(=O)C(CCC(=O)OC(C)(C)C)NC(=O)C(F)(F)F (stereo not given)   94 % of control

In the following, a different compound is considered.
Entry `COc1ccc(-n2c(O)c(N=Nc3ccc(Br)cc3)c(=O)n(-c3ccccc3)c2=S)cc1` has what T/C?
102 % of control
